Test system: COLO 205 colon
experiment-description: NCI-60 one-dose screen, 48 h
measurement-setup: 10 µM unless noted
The panel holds about 83,000 compounds, 20% with a hit somewhere; the sample as a whole holds those more often. The source made the active and inactive calls. The calls were made as follows: active = growth percent below 10; inactive = the rest.
Labels: active, inactive

| compound | label-class |
| --- | --- |
| N#Cc1c(-c2ccc(C(F)(F)F)cc2)cc(NCC2CCS(=O)(=O)CC2)n2c1nc1ccccc12 | inactive |
| C[C@@]1(C(=O)Nc2ccc(F)nc2)CCCN1c1nc(Nc2cc(C3CC3)[nH]n2)c2cccn2n1 | active |
| Cc1ccc2oc(=O)cc(-c3cc(-c4cc5ccccc5oc4=O)nc(N)c3C#N)c2c1 | inactive |
| C=CC(=O)N1CCC[C@H](n2c(=O)n(-c3ccc(Oc4ccccc4)cc3)c3c(N)ncnc32)C1 | inactive |
| O=C(Nc1ccc(Nc2ncnc3sc4c(c23)CCOC4)cc1)Nc1ccc(Cl)c(C(F)(F)F)c1 | inactive |
| COc1c(C(NC(=O)c2ccccc2)c2sccc2C)cc(Cl)c2cccnc12 (stereo not drawn) | inactive |
| NC1(c2ccc(-c3nc4ccn5c(=O)[nH]nc5c4cc3-c3ccccc3)cc2)CCC1 | active |
| Cc1oc2c(C(=O)N/N=C\c3ccc(O)cc3O)c[nH]c2c1C | active |
| c1ccc2c(c1)CCN(NCCN1CCCC1)C2 | inactive |
| COc1cc(Nc2ncc3c(n2)-c2ccc(Cl)cc2C(c2c(F)cccc2OC)=NC3)ccc1C(=O)O | active |
| COc1cnc2c(c1)C(=O)c1c-2n(CCCN2CCC(N)CC2)c(=O)c2cc([N+](=O)[O-])ccc12 | inactive |
| Cc1c(Cn2c(C)nc3c(C(=O)O)cc(N4CCOCC4)cc32)cccc1C(F)(F)F | inactive |
| CCc1cnn2c(NCc3ccc[n+]([O-])c3)cc(N3CCCC[C@H]3CCO)nc12 | active |
| COc1ccc2c(CCC(c3ccccc3)c3ccccc3)c3[n+](cc2c1OC)CCc1cc2c(cc1-3)OCO2 | active |
| CCCCN1CCCC[C@@H]1C(=O)N[C@H](C(=O)N(C)[C@H](CCc1nc(C(=O)N[C@@H](Cc2ccccc2)C[C@H](C)C(=O)OC)cs1)C(C)C)C(C)C | inactive |
| Nc1c(C(=O)c2ccccc2)sc2nc(-c3cccs3)ccc12 | active |
| Cc1nn(-c2ccccc2)c2c1N=c1s/c(=C\c3cn(-c4ccccc4)nc3-c3ccc(Cl)cc3)c(=O)n1C(C)N2 (stereo not drawn) | inactive |
| Cc1cc(N(CCNc2ccnc3cc(Cl)ccc23)Cc2cccs2)nc(Cl)n1 | active |

Sourced from PubChem BioAssay (NCI)
